Here, each record is paired with measured inhibition at 1.11 µM data.
- ASSAYED SYSTEM: PI3Kbeta (Homo sapiens)
- Construct: His (N); host or cells: SF9 insect cells (baculovirus)
- Sequence (P42338 whole entry, one chain of several): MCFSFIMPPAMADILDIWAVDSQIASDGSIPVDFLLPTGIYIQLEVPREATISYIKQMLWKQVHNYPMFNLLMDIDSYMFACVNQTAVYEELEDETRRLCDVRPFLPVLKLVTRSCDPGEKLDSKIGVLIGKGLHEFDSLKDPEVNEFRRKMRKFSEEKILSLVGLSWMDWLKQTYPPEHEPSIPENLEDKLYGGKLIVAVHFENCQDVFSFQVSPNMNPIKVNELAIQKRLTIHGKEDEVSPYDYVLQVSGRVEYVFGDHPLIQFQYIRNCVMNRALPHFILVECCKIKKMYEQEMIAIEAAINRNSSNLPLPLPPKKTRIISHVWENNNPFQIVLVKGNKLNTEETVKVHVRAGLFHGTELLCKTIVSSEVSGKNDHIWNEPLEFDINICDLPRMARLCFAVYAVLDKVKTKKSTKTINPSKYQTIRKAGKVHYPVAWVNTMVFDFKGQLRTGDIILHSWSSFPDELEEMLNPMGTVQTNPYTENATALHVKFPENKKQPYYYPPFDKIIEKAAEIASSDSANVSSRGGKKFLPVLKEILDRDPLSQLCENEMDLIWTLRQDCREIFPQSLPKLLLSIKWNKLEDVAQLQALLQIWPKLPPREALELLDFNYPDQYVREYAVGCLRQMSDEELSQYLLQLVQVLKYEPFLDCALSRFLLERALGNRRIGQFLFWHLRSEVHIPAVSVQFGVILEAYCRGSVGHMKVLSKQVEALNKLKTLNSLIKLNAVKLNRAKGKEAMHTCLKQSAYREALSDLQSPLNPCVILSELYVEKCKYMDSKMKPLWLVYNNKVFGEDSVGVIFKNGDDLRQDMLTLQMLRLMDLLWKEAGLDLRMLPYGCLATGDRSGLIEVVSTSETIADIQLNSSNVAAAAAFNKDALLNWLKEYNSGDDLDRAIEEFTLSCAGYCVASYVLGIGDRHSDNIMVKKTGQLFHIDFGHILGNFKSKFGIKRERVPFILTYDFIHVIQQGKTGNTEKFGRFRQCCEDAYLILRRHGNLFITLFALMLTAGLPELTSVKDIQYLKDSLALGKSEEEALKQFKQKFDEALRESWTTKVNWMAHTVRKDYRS
- METHOD NOTES: Human PI3K beta enzyme assay (HTRF, as for PI3K alpha)
- Format: biochemical
- TEST PARAMETERS: at 1.11 μM; read-out: PI3Kbeta % inh

{"columns": ["COMPOUND", "UNIT SPEC", "inhibition at 1.11 µM"],
 "data": [
  ["C=Cc1c(N2CCOCC2)sc2c1C(c1ccc(Cl)cc1)CNC2=O (single isomer, unassigned)", "%", 82.5],
  ["O=C(O)CN1CC(c2ccc(Cl)cc2)c2cc(N3CCOCC3)sc2C1=O (stereo not shown)", "%", 99.3],
  ["COC(=O)[C@@H]1C(=O)c2sc(-c3ccncc3)cc2[C@H]1c1ccc(Cl)cc1 (relative stereo)", "%", 87.8],
  ["N#Cc1c(N2CCOCC2)sc2c1C(c1ccc(Cl)c(Cl)c1)CNC2=O (stereo not shown)", "%", 118],
  ["O=C1N[C@@H](CO)[C@H](c2ccc(Cl)c(Cl)c2)c2cc(N3CCOCC3)sc21 (relative stereo)", "%", 106],
  ["COC(=O)[C@@H]1NC(=O)c2sc(N3CCOCC3)cc2[C@H]1c1ccc(Cl)c(Cl)c1 (relative stereo)", "%", 75.8],
  ["CC1(C)C(=O)c2sc(N3CCOCC3)cc2C1c1ccc(Cl)cc1 (stereo not shown)", "%", 92.6],
  ["N#Cc1c(N2CCOCC2)sc2c1C(c1ccc(Cl)cc1)CCNC2=O (stereo not shown)", "%", 108],
  ["O=C1N[C@@H](CO)[C@H](c2ccc(Cl)cc2)c2cc(N3CCOCC3)sc21", "%", 110],
  ["CN(C)C(=O)[C@@H]1NC(=O)c2sc(N3CCOCC3)cc2[C@H]1c1ccc(Cl)cc1", "%", 71.8],
  ["O=S1(=O)NCC(O)(c2ccc(Cl)cc2)c2cc(-c3ccncc3)sc21 (racemic)", "%", 105],
  ["O=C1NCC(c2ccc3ccncc3c2)c2nc(N3CCOCC3)sc21 (stereo not shown)", "%", 116],
  ["N#Cc1c(N2CCOCC2)sc2c1C(c1ccc3ccccc3c1)NC2=O (stereo not shown)", "%", 99.7]
]}

* * *

Entries annotated with measured PI3Kalpha % inh
- ASSAYED SYSTEM: PI3Kalpha (Homo sapiens)
- Construct: His (N); host or cells: SF9 insect cells (baculovirus)
- Sequence (P42336 whole entry): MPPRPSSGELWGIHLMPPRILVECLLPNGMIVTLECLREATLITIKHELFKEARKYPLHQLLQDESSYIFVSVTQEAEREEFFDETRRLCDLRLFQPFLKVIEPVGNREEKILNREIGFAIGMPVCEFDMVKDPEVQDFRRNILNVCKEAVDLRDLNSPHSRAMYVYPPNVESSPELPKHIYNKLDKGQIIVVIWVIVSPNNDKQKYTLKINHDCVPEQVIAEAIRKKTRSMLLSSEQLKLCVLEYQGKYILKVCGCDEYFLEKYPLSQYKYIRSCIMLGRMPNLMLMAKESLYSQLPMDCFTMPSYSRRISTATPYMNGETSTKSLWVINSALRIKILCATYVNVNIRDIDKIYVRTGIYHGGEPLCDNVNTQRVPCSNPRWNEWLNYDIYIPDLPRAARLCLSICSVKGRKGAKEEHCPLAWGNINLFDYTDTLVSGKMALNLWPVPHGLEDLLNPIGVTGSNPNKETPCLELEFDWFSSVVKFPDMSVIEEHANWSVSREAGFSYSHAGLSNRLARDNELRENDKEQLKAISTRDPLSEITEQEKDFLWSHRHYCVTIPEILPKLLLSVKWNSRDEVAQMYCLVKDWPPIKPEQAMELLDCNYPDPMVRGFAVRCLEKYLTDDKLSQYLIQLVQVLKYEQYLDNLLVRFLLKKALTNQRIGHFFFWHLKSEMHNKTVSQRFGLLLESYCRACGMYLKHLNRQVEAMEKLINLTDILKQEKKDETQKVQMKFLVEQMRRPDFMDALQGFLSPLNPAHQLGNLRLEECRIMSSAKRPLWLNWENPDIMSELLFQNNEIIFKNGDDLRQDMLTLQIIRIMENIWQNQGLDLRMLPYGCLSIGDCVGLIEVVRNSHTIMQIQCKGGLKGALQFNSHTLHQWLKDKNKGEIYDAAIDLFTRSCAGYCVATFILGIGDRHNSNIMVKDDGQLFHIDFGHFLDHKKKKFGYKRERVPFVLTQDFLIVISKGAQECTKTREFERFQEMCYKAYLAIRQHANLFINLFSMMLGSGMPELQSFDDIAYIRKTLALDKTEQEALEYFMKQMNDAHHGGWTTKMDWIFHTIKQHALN
- Sequence (P27986 whole entry partner): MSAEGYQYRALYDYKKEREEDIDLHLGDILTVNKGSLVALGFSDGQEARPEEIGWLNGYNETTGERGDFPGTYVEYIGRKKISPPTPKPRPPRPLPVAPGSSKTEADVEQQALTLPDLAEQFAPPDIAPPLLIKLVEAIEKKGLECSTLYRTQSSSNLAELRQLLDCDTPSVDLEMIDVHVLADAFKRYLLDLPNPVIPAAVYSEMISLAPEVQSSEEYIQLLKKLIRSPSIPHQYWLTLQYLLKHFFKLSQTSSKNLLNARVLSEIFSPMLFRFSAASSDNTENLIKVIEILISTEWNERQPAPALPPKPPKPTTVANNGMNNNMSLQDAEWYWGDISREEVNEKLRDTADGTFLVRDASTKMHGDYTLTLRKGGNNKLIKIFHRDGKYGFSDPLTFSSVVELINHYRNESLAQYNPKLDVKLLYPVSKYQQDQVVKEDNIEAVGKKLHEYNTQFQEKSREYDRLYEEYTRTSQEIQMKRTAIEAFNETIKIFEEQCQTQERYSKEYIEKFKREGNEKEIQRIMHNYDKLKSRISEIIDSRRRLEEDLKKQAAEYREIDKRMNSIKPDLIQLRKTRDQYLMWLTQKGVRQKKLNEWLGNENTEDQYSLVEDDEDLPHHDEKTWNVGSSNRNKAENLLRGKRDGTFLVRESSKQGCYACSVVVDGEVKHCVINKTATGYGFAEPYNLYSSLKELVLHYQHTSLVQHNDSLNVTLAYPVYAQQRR
- METHOD NOTES: Human PI3Kα enzyme assay (HTRF)
- Assay type: biochemical
- TEST PARAMETERS: at 1.11 μM
- Description: The catalytic subunits of PI3Ks are cloned into either pDEST8(p110 alpha) or pDEST10(p110beta, p110delta, and p110gamma) as N-terminal His tagged fusion proteins using the Gateway system (Invitrogen, catalog#11804-010 for pDEST8 and 11806-015 for pDEST10). The sequences are verified before recombinant protein expression using the Baculovirus Expression System with Gateway® Technology. The accession numbers for the subunits are as follows: […]
PARAMETER: PI3Kalpha % inh (%)

{"columns": ["COMPOUND", "ASSAYED SYSTEM", "MEASUREMENT"],
 "data": [
  ["O=C1CCC(O)C(c2ccc(Cl)cc2)c2cc(-c3ccncc3)sc21 (stereo not drawn) [Compound 129]", "PI3Kalpha (Homo sapiens)", 2.32],
  ["N#Cc1c(N2CCOCC2)sc2c1C(c1ccc(Cl)c(Cl)c1)CCNC2=O (stereo not drawn) [Compound 199]", "PI3Kalpha (Homo sapiens)", 65.98],
  ["O=C1N[C@@H](CO)CC(c2ccc3ccccc3c2)c2nc(N3CCOCC3)sc21 (stereo partly drawn) [Compound 202]", "PI3Kalpha (Homo sapiens)", 88.75],
  ["O=C1NCCC(c2ccc3ccccc3c2)c2nc(N3CCOCC3)sc21 (stereo not drawn) [Compound 209]", "PI3Kalpha (Homo sapiens)", 81.32],
  ["O=C1NCCC(c2ccc(Cl)cc2)c2cc(-c3ccncc3)sc21 (single isomer, unassigned)", "PI3Kalpha (Homo sapiens)", 3.700],
  ["O=C1N[C@@H](C(=O)NCCCO)[C@H](c2ccc(Cl)cc2)c2cc(N3CCOCC3)sc21 [Compound 170]", "PI3Kalpha (Homo sapiens)", 22.53]
]}
